// data source = patent US7345056B2

The compounds listed here are annotated with their pIC50.
systemName: gamma-secretase (partially purified extract of IMR-32 cell membranes) (Homo sapiens, UniProt P49768)
Construct: a partially purified extract of IMR-32 cell membranes as the gamma-secretase enzyme preparation; endogenous in cells
testName: Gamma-secretase APP enzyme assay (cleavage of MBP-C125 Swe at the Aβ40 site, sandwich ELISA)
runConditions: MBP-C125swe substrate, IMR-32 membrane extract, 2 h at 37° C., Aβ40 site cleavage product by ELISA; read-out: γAPP (inhibition, IC50)
From the text: The gamma-secretase APP enzyme assay was designed to measure the specific proteolytic cleavage of an APP substrate (MBP-C125 Swe fusion protein) at the Aβ40 site. […] This assay involved two steps beginning with the enzymatic reaction generating a cleavage product that was captured with an immobilized antibody specific for the neo-epitope Aβ40 site. The captured cleavage product was then detected in a sandwich ELISA assay with a biotinylated reporter antibody that is specific to Aβ (17-28). […]
pIC50: −log10 of the molar value.

compound	pIC50
O=S(=O)(c1ccc(Cl)cc1)N1C2CCCC1c1c(C(F)(F)F)n[nH]c1C2 (stereo not drawn) [Example 82]	> 7.00
O=S(=O)(c1ccc(Cl)s1)N1C2CCCC1c1cn[nH]c1C2 (stereo not drawn)	> 7.00
Nc1ncc2c(n1)CC1CCCC2N1S(=O)(=O)c1ccc(Cl)cc1 (stereo not drawn)	6.60 to 7.00
Nc1n[nH]c2c1C1CCCC(C2)N1S(=O)(=O)c1ccc(Cl)cc1 (stereo not drawn) [Example 97]	> 7.00
CC(C)C(=O)n1cc2c(n1)CC1CCCC2N1S(=O)(=O)c1ccc(Cl)cc1 (stereo not drawn)	> 7.00
CC(=O)n1cc2c(n1)CC1CCCC2N1S(=O)(=O)c1ccc(Cl)cc1 (stereo not drawn)	> 7.00
O=S(=O)(c1ccc(Cl)cc1)N1C2CCCC1c1cnc3c(-c4ccccc4)cnn3c1C2 (stereo not drawn)	6.60 to 7.00
O=S(=O)(c1ccc(Cl)cc1)N1C2CCC1c1cn[nH]c1C2 (stereo not drawn)	> 7.00
CC(=O)OC(C)(C)C(=O)n1cc2c(n1)CC1CCCC2N1S(=O)(=O)c1ccc(Cl)cc1 (stereo not drawn)	> 7.00
Cn1ncc2c1CC1CCCC2N1S(=O)(=O)c1ccc(Cl)cc1 (stereo not drawn)	6.30 to 6.60
O=S(=O)(c1ccc(Cl)cc1)N1C2CCCC1c1c(C(F)(F)F)n[nH]c1C2 (stereo not drawn) [Example 89]	6.60 to 7.00
Cc1n[nH]c2c1C1CCCC(C2)N1S(=O)(=O)c1ccc(Cl)cc1 (stereo not drawn)	> 7.00

* * *

systemName: gamma-secretase (partially purified extract of IMR-32 cell membranes) (Homo sapiens)
Construct: a partially purified extract of IMR-32 cell membranes as the gamma-secretase enzyme preparation; endogenous in cells
testName: Gamma-secretase APP enzyme assay (cleavage of MBP-C125 Swe at the Aβ40 site, sandwich ELISA)
runConditions: MBP-C125swe substrate, IMR-32 membrane extract, 2 h at 37° C., Aβ40 site cleavage product by ELISA; read-out: γAPP (inhibition, IC50)
pIC50: −log10 of the molar value.
measureName: pIC50

compound	systemName	measureName	result
Nc1n[nH]c2c1C1CCCC(C2)N1S(=O)(=O)c1ccc(Cl)cc1 (stereo not drawn) [Example 94]	gamma-secretase (partially purified extract of IMR-32 cell membranes) (Homo sapiens)	pIC50	> 7.00
CC1c2[nH]ncc2C2CCCC1N2S(=O)(=O)c1ccc(Cl)cc1 (stereo not drawn)	gamma-secretase (partially purified extract of IMR-32 cell membranes) (Homo sapiens)	pIC50	> 7.00
O=S(=O)(c1ccc(Cl)cc1)N1C2CCCC1c1cnc3cc(-c4ccccc4)nn3c1C2 (stereo not drawn)	gamma-secretase (partially purified extract of IMR-32 cell membranes) (Homo sapiens)	pIC50	6.30 to 6.60
O=S(=O)(c1ccc(Cl)cc1)N1C2CCCC1c1c(Cl)n[nH]c1C2 (stereo not drawn)	gamma-secretase (partially purified extract of IMR-32 cell membranes) (Homo sapiens)	pIC50	6.30 to 6.60
C=CCOC(=O)n1cc2c(n1)CC1CCCC2N1S(=O)(=O)c1ccc(Cl)cc1 (stereo not drawn)	gamma-secretase (partially purified extract of IMR-32 cell membranes) (Homo sapiens)	pIC50	6.30 to 6.60
O=S(=O)(c1ccc(Cl)cc1)N1C2CCCC1c1cnn(C3CCCCC3)c1C2 (stereo not drawn)	gamma-secretase (partially purified extract of IMR-32 cell membranes) (Homo sapiens)	pIC50	6.30 to 6.60
O=S(=O)(c1ccc(Cl)cc1)N1C2CCCC1C(O)c1[nH]ncc12 (stereo not drawn)	gamma-secretase (partially purified extract of IMR-32 cell membranes) (Homo sapiens)	pIC50	> 7.00
CCC1c2[nH]ncc2C2CCCC1N2S(=O)(=O)c1ccc(Cl)cc1 (stereo not drawn)	gamma-secretase (partially purified extract of IMR-32 cell membranes) (Homo sapiens)	pIC50	> 7.00
O=S(=O)(c1ccc(Cl)cc1)N1C2CCCC1c1c(C(F)F)n[nH]c1C2 (stereo not drawn)	gamma-secretase (partially purified extract of IMR-32 cell membranes) (Homo sapiens)	pIC50	> 7.00
